Biological target: HLA-A*0201 molecules (Homo sapiens, UniProt P04439, D140Y/D185E/D98H/E176V/E277Q/G131W/G231S/I119V/I121R/I166T/I218V/L300P/L318F/N151K/N90K/P208A/P217A/Q86G/Q94H/R138H/R169H/T345S)
Construct: T2 cell (which expressing HLA-A*0201)-stabilization assay; endogenous in cells; host or cells: T2 cells
Assay: T2 cell-stabilization assay (T2-based HLA-A*0201 binding)
Settings: T2 cells, peptide 50 μg/mL; ratio to negative control (MFI=1)
Measured Property: mean of fluorescence intensity (MFI) ratio, binding to HLA-A*0201

[
  {
    "Sequence Text": "LMSNNVQIV (F296-304) [compound 16, 9-mer synthetic peptide from the F protein of RSV-B1 strain]",
    "Reading": "about 1.5"
  },
  {
    "Sequence Text": "KLMSNNVQI (F295-303) [compound 15, 9-mer synthetic peptide from the F protein of RSV-B1 strain]",
    "Reading": "about 1.5"
  },
  {
    "Sequence Text": "LLSTNKAVV (F194-202) [compound 9, 9-mer synthetic peptide from the F protein of RSV-B1 strain]",
    "Reading": "about 1.5"
  },
  {
    "Sequence Text": "LLSLIAVGL (F561-569) [compound 24, 9-mer synthetic peptide from the F protein of RSV-B1 strain]",
    "Reading": "about 1.5"
  }
]
